Recorded values, source paper PMC8863796.

Test: Cytotoxicity assay (XTT)
Type: cell-based
Conditions: human
Metric Name: CC50 at 3 days
Express the reported value numerically, then name its unit.

Could you share which CC50 at 3 days value was measured for NC(=O)c1nc(F)cnc1O [Favipiravir, 6-fluoro-3-hydroxy-2-pyrazinecarboxamide] ?
670 µM

----------
Test: Cytotoxicity assay (XTT)
Assay type: cell-based
Settings: human; Table S-1; 3 days treatment, XTT; read-out: CC50
Metric Name: CC50 at 3 days (µM)
Just the number please, in µM, no unit attached.

Smiles Record: CCC(CC)COC(=O)[C@H](C)N[P@](=O)(OC[C@H]1O[C@@](C#N)(c2ccc3c(N)ncnn23)[C@H](O)[C@@H]1O)Oc1ccccc1
Experimental Value: 480

Give its CC50 at 3 days value. Item: `CC(C)OC(=O)OCOP(=O)(CO[C@H](C)Cn1cnc2c(N)ncnc21)OCOC(=O)OC(C)C`
91
